Assign Firefly ERalpha transient, cmpd/DMSO (mean) to each entry below.
Measured Target: ERα (Homo sapiens)
Construct: expressed in transfected cells
Sequence (P03372 whole entry, species assumed): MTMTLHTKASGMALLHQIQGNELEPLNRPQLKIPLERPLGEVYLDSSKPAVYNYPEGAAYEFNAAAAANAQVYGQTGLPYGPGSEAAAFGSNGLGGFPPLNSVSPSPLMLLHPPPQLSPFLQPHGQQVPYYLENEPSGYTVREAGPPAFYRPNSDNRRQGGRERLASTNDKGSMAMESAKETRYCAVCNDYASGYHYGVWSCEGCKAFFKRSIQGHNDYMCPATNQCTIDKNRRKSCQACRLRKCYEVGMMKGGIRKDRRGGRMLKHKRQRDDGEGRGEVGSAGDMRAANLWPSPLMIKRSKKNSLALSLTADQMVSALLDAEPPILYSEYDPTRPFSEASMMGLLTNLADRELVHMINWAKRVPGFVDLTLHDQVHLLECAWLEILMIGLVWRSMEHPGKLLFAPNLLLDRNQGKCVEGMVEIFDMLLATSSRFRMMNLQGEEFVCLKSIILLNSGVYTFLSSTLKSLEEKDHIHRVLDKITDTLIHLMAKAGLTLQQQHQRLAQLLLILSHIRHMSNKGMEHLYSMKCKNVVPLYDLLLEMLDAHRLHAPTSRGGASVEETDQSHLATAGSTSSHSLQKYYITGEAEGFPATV
Test Method Notes: Counterscreening, Firefly signal with ERα transient transfection (Firefly_ERa)
Format: cell-based
Conditions: 2 uM

Ask: Specify Firefly ERalpha transient, cmpd/DMSO (mean) for CCCCCCNc1nc(OC)nc(N2CCn3c(cccc3=O)C2)n1 and stop.
Result: 1.5

Ask: Specify Firefly ERalpha transient, cmpd/DMSO (mean) for CCOC(=O)c1cnc2c(Cl)cc(Cl)cc2c1NCCCN1CCCC1 and stop.
Result: 1.2

Ask: Specify Firefly ERalpha transient, cmpd/DMSO (mean) for O=C(O)c1ccc(-n2ncc(Cl)c(Cl)c2=O)cc1 and stop.
Result: 1.5

Ask: Specify Firefly ERalpha transient, cmpd/DMSO (mean) for CCCCCCNc1nc(OCC)nc(N2CCn3c(cccc3=O)C2)n1 and stop.
Result: 1.0

Ask: Specify Firefly ERalpha transient, cmpd/DMSO (mean) for CC(C)Nc1nc(N2CCCC2)nc(N2CCn3c(cccc3=O)C2)n1 and stop.
Result: 1.0

Ask: Specify Firefly ERalpha transient, cmpd/DMSO (mean) for COc1ccc(-c2cc3n(n2)C(N)=C(C#N)C(c2c[nH]c4ccccc24)(C(F)(F)F)N3)cc1OC (centres unmarked) and stop.
Result: 1.2

Ask: Specify Firefly ERalpha transient, cmpd/DMSO (mean) for O=c1c(Cl)c(Cl)cnn1-c1ccccc1 and stop.
Result: 1.8

Ask: Specify Firefly ERalpha transient, cmpd/DMSO (mean) for COc1ccc(-c2cc3n(n2)C(N)=C(C#N)C(c2cccn2C)(C(F)(F)F)N3)cc1OC (centres unmarked) and stop.
Result: 1.3
